observed property: melting point

COc1ccc(Cn2nc(-c3ccc([S+](C)[O-])cc3)c(-c3ccc(F)cc3)cc2=O)cc1 (stereo not drawn) [Example 89]
81.3 to 81.5 °C
C[S+]([O-])c1ccc(-c2nn(CC3CC3)c(=O)cc2-c2ccc(Cl)cc2)cc1 (stereo not drawn) [Example 86]
152.2 to 152.3 °C

Lookup: Requested read-out: melting point. Entry: COc1ccc(-c2cc(=O)n(CC(C)C)nc2-c2ccc(OC)c(F)c2)cc1 [Example 147]
Found: 86.8 to 87.4 °C

Lookup: Also check CSc1ccc(C2=NN(Cc3ccccc3)C(=O)CC2c2ccc(Cl)cc2)cc1 (stereo not drawn) [Example 121]
Found: 113.5 to 113.9 °C

Lookup: Also check CS(=O)(=O)c1ccc(-c2n[nH]c(=O)cc2-c2ccc(Cl)cc2)cc1 [Example 98]
Found: 254 to 254.7 °C

Lookup: Also check CSc1ccc(-c2nn(Cc3ccccc3)c(=O)cc2-c2ccc(F)cc2)cc1 [Example 61]
Found: 140.6 to 140.7 °C

Lookup: Also check COc1ccc(-c2cc(=O)n(Cc3ccccn3)nc2-c2ccc(OC)cc2)cc1 [Example 43]
Found: 116 to 117 °C
